Hi! I'm sharing some IC50 results obtained with RIPK1 (Homo sapiens, UniProt Q13546).
Sequence (Q13546 whole entry, species assumed): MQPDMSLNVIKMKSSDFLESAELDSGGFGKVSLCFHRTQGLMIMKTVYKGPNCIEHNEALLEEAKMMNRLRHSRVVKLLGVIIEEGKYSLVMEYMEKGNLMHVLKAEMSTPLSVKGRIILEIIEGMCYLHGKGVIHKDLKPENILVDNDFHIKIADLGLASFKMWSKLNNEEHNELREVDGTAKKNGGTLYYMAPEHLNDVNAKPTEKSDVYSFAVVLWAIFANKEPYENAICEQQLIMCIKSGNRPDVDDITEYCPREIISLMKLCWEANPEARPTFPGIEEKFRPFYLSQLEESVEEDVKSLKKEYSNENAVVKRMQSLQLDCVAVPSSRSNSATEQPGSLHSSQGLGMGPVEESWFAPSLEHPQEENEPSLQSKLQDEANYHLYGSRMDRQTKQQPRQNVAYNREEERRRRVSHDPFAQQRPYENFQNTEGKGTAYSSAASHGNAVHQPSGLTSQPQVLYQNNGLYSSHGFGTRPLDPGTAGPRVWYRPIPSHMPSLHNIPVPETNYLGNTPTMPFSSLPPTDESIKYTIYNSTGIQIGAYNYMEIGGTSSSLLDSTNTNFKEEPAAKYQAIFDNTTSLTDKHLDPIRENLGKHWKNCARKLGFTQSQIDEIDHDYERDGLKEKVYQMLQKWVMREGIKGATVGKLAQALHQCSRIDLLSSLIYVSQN
# output: number + unit

These solved cases illustrate the format of a correct answer.
>  <Molecule>
CN1C(=O)C(NC(=O)c2n[nH]c(Cc3ccccc3)n2)CCc2ccc(CN3CCN(c4ccncc4)CC3)cc21 (racemic)

>  <IC50>
0.525 µM

$$$$
>  <Molecule>
CN1C(=O)[C@@H](NC(=O)c2ccn(Cc3ccccc3)n2)CCc2ccc(C#CC(C)(C)C)cc21

>  <IC50>
0.0546 µM

$$$$
>  <Molecule>
O=C(NC1CCc2ccc(CN3CCN(c4ccncc4)CC3)cc2NC1=O)c1n[nH]c(Cc2ccccc2)n1 (racemic) [Compound I-7]

>  <IC50>
0.806 µM

$$$$

INPUT: Which measured IC50 belongs to CN1C(=O)[C@@H](NC(=O)c2ccn(Cc3ccccc3)n2)CCc2ccc(N3CC4(CCOCC4)C3)cc21 , tested on RIPK1 (Homo sapiens, UniProt Q13546)?
OUTPUT: 0.0388 µM
